B1: Peroxisome proliferator-activated receptor delta, residues 71 to 145; numbered along this chain, Q03181 (parent)
chain: NMECRVCGDKASGFHYGVHACEGCKGFFRRTIRMKLEYEKCERSCKIQKKNRNKCQYCRFQKCLALGMSHNAIRF

Variants of: B1
TEST_PROTOCOL: abundance fitness (aPCA) (normalised: wild type 0, dead -1); higher = more abundant; growth selection in yeast, the domain comes from the species named
CONDITION_SET: Homo sapiens
VALUE_KIND: abundance fitness

    mutation_descriptor  reported_measurement
 0                 Y38Q                 -1.02
 1                 G23V                -0.325
 2                 Y38S                -0.868
 3                 C55V                 -1.03
 4                 I73S                 0.071
 5                 C21R                -0.865
 6                 E42N                -0.335
 7                 L66N                -0.014
 8                 K10I                -0.052
 9                 A65D                 0.092
10                 G17L                -0.692
11                 R74F                 0.049
12                 M34L                 0.006
13                 M34Q                 0.136
14                 E39G                -0.221
15                  C4M                -0.461
16                 E37W                -0.311
17                 A20R                -0.707
18                  C7G                -0.504
19                 N51A                -0.154
20                 V18R                -0.671
21                  V6P                -0.923
22                 K46R                -0.037
23                 C41G                -0.684
24                 Y57E                -0.601
25                 I47F                -0.246
26                  N1K                -0.075
27                 M68K                -0.769
28                 H15V                -0.238
29                 C21Q                -0.763
30                 E22C                -0.258
31                 C41V                -0.645
32                 G17D                 -0.15
33                 I32E                -0.531
34                 E37G                -0.319
35                  G8E                 -0.32
36                  M2D                -0.056
37                 F28C                -0.882
38                 H15F                -0.006
39                 S44I                -0.212
40                 K40R                -0.095
41                 Y38L                -0.544
42                  R5E                 0.105
43                 N71F                -0.477
44                 A65H                -0.288
45                 K10A                -0.002
46                  V6N                -0.624
47                 K62Q                -0.293
48                 C24R                -0.823
49                 G23H                  0.26
50                 K50I                 0.132
51                 K50E                 0.111
52                 C55S                -0.823
53                 I32P                -0.869
54                 E42R                -0.367
55                 M34E                 0.118
56                  G8H                -0.064
57                 E22Q                -0.332
58                 H19A                  0.11
59                 Y57M                -0.867
60                 I32C                -0.234
61                 R74G                 0.224
62                 H19D                 0.205
63                 K46D                 0.142
64                 G13V                -0.353
65                 C21M                -0.912
66                 Q61T                -0.304
67                 K46A                 0.007
68                 V18I                -0.051
69                 M68W                -0.148
70                 R52V                  0.07
71                 G13P                -0.363
72                 C24D                -0.306
73                 F60H                -0.528
74                  M2N                 -0.21
75                 K46M                 0.066
76                 K10S                -0.106
77                 K25S                 0.105
78                 A11P                -0.197
79                  V6R                -0.839
80                  C4F                -0.675
81                 K10D                 -0.01
82                 G13W                -0.708
83                 E39Y                -0.447
84                 N53L                -0.217
85                 G26V                -0.004
86                 M68E                -0.794
87                  G8Y                -0.438
88                 S69V                -0.057
89                 R33C                  0.11
90                 G67F                -0.459
